# test.target: UniProt:Q9UK32
# Sequence (Q9UK32 whole entry, looked up): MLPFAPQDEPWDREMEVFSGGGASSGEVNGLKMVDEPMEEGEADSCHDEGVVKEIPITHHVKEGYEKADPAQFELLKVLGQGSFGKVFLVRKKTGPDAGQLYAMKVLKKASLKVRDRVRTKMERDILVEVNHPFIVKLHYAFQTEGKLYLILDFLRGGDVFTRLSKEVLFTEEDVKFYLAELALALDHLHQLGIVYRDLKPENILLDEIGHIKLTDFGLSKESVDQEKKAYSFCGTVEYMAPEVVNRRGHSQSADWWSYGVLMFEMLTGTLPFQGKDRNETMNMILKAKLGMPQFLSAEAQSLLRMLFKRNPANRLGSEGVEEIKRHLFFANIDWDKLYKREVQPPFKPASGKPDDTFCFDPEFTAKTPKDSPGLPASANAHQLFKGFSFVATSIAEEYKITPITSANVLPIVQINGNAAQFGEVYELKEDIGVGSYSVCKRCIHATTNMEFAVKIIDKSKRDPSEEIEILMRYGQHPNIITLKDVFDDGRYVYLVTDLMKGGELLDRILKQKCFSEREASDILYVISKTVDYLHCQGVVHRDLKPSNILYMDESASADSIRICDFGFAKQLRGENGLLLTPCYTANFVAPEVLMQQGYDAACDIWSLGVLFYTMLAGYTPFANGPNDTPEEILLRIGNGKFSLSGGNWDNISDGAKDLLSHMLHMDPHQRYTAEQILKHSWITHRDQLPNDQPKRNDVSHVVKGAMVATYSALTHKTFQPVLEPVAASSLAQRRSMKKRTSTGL
# test.details: radiometric filter-binding kinase assay, Kinase HotSpot
# condition.label: compound 0.5 µM; ATP 10 µM
Attribute: residual activity
Give just the numeric value; % need not be written.

# count of solved cases: 5
Cn1sc(=O)n(Cc2ccccc2)c1=O | 104
O=C(O)/C=C/c1cc(Br)c(Br)c(Br)c1Br | 86.9
CC(C)c1nn(-c2c(Cl)cccc2Cl)c2nc(Cc3ccc(OCCO)cc3)nc(O)c12 | 84.8
CC(C)[C@H](CO)Nc1nc(Nc2cc(N)cc(Cl)c2)c2ncn(C(C)C)c2n1 | 46.1
O=C1Cc2c([nH]c3ccc(Br)cc23)-c2ccccc2N1 | 95.9

Continue with the compound presented below.
// query Using the record for `O=C(Nc1cccc(Nc2cc(Nc3cccc(C(F)(F)F)c3)ncn2)c1)C1CC1` , report its residual activity.
// result 96.6
